Provenance of the data: patent US20240360228A1

# TARGET_UNDER_TEST: T1, human CCR8 (human, UniProt P51685 1-355)
# T1 construct: Native CCR8 on human PBMC (CCR8+ CD3+ or CCR8+ CD4+ lymphocytes); also called chemokine (C-C motif) receptor 8
# MEASUREMENT_DESCRIPTION: flow blocking, PBMC CCR8+CD4+; competitor PE-AB12
PARAMETER_MEASURED: % Blocking (%)
Record the value in %, omitting the unit from your answer.

Completed entries (count: 3):
BINDER	MEASUREMENT_UNIT	% Blocking
AB13 (antibody, V domains shown, Hybridoma monoclonal; also called antibody 13; clone 13) VH: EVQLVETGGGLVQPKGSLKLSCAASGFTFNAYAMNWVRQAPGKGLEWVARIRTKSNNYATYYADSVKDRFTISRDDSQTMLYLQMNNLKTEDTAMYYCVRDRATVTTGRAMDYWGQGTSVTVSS VL: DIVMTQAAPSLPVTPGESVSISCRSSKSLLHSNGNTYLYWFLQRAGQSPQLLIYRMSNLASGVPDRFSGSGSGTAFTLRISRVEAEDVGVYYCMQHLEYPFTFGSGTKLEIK	%	99.4
AB15 (antibody, V domains shown, Hybridoma monoclonal; Same VH/VL entries as AB14; also called antibody 15; clone 15) VH: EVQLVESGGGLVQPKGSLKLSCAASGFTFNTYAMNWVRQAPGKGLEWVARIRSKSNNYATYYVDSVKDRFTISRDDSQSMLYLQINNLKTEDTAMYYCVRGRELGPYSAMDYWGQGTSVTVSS VL: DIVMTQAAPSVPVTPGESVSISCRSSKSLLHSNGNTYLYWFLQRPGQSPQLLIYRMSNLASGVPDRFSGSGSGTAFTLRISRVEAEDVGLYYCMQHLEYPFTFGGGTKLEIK	%	99.4
AB2 (antibody, V domains shown, Hybridoma monoclonal; Same VH/VL entries as AB1; also called antibody 2; clone 2) VH: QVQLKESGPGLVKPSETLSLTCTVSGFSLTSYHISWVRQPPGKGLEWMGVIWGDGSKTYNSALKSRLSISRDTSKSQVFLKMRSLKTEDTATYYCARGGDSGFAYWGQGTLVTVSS VL: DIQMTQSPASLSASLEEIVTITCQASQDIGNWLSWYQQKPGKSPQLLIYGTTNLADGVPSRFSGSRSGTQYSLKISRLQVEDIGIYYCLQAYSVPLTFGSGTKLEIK	%	-8.89

Briefly, % Blocking measured for AB11 (antibody, V domains shown, Hybridoma monoclonal; also called antibody 11; clone 11) VH: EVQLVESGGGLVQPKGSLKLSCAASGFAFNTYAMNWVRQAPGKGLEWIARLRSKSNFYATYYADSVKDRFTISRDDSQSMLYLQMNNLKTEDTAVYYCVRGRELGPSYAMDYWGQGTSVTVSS VL: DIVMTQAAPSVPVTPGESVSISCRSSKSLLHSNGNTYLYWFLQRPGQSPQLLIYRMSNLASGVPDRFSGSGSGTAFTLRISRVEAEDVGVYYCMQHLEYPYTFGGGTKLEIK : 98.3

Briefly, % Blocking measured for AB12 (antibody, V domains shown, Hybridoma monoclonal; also called antibody 12; clone 12) VH: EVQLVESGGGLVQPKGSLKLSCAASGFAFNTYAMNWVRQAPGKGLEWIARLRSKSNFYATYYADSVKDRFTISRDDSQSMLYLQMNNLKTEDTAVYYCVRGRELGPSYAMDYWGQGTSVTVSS VL: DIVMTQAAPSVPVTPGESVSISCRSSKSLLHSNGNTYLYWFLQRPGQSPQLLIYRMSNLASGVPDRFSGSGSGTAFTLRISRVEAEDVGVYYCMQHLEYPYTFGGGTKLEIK : 99.4

Briefly, % Blocking measured for AB14 (antibody, V domains shown, Hybridoma monoclonal; Same VH/VL entries as AB15; also called antibody 14; clone 14) VH: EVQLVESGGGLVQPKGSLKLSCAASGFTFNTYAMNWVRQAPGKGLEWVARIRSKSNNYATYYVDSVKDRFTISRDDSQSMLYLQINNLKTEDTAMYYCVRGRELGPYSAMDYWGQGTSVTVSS VL: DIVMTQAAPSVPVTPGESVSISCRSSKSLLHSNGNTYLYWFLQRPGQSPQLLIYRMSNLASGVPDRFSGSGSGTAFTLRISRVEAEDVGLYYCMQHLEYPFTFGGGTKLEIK : 99.4

Briefly, % Blocking measured for AB5 (antibody, V domains shown, Hybridoma monoclonal; Same VH/VL entries as AB6; also called antibody 5; clone 5) VH: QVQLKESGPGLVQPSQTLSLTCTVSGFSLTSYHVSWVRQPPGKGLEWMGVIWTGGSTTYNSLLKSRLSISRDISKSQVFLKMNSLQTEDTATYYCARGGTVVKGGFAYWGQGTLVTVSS VL: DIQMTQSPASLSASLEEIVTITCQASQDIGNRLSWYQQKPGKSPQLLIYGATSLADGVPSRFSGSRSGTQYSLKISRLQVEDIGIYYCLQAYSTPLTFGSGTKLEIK : 0

Briefly, % Blocking measured for AB4 (antibody, V domains shown, Hybridoma monoclonal; also called antibody 4; clone 4) VH: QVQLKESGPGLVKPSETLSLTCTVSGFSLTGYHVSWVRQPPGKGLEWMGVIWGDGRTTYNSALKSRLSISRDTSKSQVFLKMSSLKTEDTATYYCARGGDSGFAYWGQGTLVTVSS VL: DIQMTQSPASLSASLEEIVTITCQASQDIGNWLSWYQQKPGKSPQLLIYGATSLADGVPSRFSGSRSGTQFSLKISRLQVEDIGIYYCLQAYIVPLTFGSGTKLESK : 1.11
